Reference source for all entries: ChEMBL document CHEMBL1143821

# MEASUREMENT NOTES: Toxicity against human erythrocytes assessed as hemolytic activity
# Type: cell-based, Erythrocyte
# EC50 listing for each entry below
I only need the number, in µg/mL, no unit after it.

# MOL SMILES, UNIT STRING, EC50
measured = [
    ("CCCCCCCCCCCCCCCC(=O)NCc1ccc(C(=O)N[C@H](C(=O)O)[C@@H](C)CC)cc1", "µg/mL", 50),
    ("CCCCCCCCCCCCCC(=O)NCc1cccc(C(=O)N[C@H](C(=O)O)[C@@H](C)CC)c1", "µg/mL", 84),
    ("CCCC/C=C\\CCCCCCCC(=O)NCc1ccc(C(=O)N[C@H](C(=O)O)[C@@H](C)CC)cc1", "µg/mL", 350),
]

Req: Form field: reported EC50 of CCCCCC/C=C\CCCCCCCC(=O)NCc1ccc(C(=O)N[C@H](C(=O)O)[C@@H](C)CC)cc1
Resp: 250

Req: Now this one: CCCCCCCCCCCCCC(=O)NCCc1ccc(C(=O)N[C@H](C(=O)O)[C@@H](C)CC)cc1
Resp: 35

Req: # iterate: CCCCCCCCCCCCCC(=O)NCc1ccc(C(=O)N[C@H](C(=O)O)[C@@H](C)CC)cc1
Resp: 66

Req: // next record CCCCCCCCCCCCCC(=O)NCc1ccc(C(=O)N[C@@H](CCC(N)=O)C(=O)O)cc1
Resp: 520
